Provenance of the data: the supplement of paper PMC11061612

tested on: CAL-33 (Oral Cavity Carcinoma); assay: combination Emax (second highest fraction inhibited in the dose matrix, 72 h); higher = more inhibition; extreme values may be limits of the assay
Some compounds, each annotated with its measured combination Emax.
Lab note: record just the number, no unit beside it.

Please review the following examples before continuing.
Task item: Requested read-out: combination Emax. Entry: Cc1c2c(nn1C)CSCc1cc(n(C)n1)CSc1cc(c3ccccc3c1)OCCCc1c(C(=O)O)n(C)c3c-2c(Cl)ccc13 [AZD5991] + C=CCn1c(=O)c2cnc(Nc3ccc(N4CCN(C)CC4)cc3)nc2n1-c1cccc(C(C)(C)O)n1 [AZD1775] (first compound max 1 µM, partner max 1 µM)
Reply: 0.802

Task item: Try this compound too: CC(=O)c1c(C)c2cnc(Nc3ccc(N4CCNCC4)cn3)nc2n(C2CCCC2)c1=O [Palbociclib] + CC1(C)CCC(CN2CCN(c3ccc(C(=O)NS(=O)(=O)c4ccc(NCC5CCOCC5)c([N+](=O)[O-])c4)c(Oc4cnc5[nH]ccc5c4)c3)CC2)=C(c2ccc(Cl)cc2)C1 [Venetoclax] (first compound max 10 µM, 7x7, partner max 1 µM)
Reply: 0.113

Task item: Do the same for NC1(C(=O)N[C@@H](CCO)c2ccc(Cl)cc2)CCN(c2ncnc3[nH]ccc23)CC1 [Capivasertib] + CCN(CCO)CCCOc1ccc2c(Nc3cc(CC(=O)Nc4cccc(F)c4)[nH]n3)ncnc2c1 [AZD2811] (first compound max 10 µM, 7x7, partner max 1 µM) please
Reply: 0.897

Task item: One more compound: Cn1cnc2c(F)c(Nc3ccc(Br)cc3Cl)c(C(=O)NOCCO)cc21 [Selumetinib] + CCN(CCO)CCCOc1ccc2c(Nc3cc(CC(=O)Nc4cccc(F)c4)[nH]n3)ncnc2c1 [AZD2811] (first compound max 10 µM, 7x7, partner max 1 µM)
Reply: 0.653

Turning to the following compound.
Task item: Fill in: combination Emax of COc1nnc2ccc(N3CCC(c4ccc(OCCN5CCN(C)C(=O)[C@H]5C)cc4)CC3)nn12 [AZD5153] + CN(CC[C@H](CSC1=CC=CC=C1)NC2=C(C=C(C=C2)S(=O)(=O)NC(=O)C3=CC=C(C=C3)N4CCC(CC4)[C@H](C5=CC=CC=C5C6=CC=C(C=C6)Cl)O)S(=O)(=O)C(F)(F)F)CCO [AZD4320] (first compound max 1 µM, 7x7, partner max 1 µM) is ___
Reply: 0.343

====

tested on: MHH-CALL-2 (B-Lymphoblastic Leukemia); experiment: combination Emax (second highest fraction inhibited in the dose matrix, 72 h); higher = more inhibition; extreme values may be limits of the assay
Reported combination Emax by item:
Respond with the number and no other words.

Task item: Provide value of combination Emax for this record tested with MHH-CALL-2 (B-Lymphoblastic Leukemia): C[C@@H](c1ccc2nccn2c1)n1nnc2ncc(-c3cnn(C)c3)nc21 [Savolitinib] + CC1(C)CCC(CN2CCN(c3ccc(C(=O)NS(=O)(=O)c4ccc(NCC5CCOCC5)c([N+](=O)[O-])c4)c(Oc4cnc5[nH]ccc5c4)c3)CC2)=C(c2ccc(Cl)cc2)C1 [Venetoclax] (first compound max 1 µM, 7x7, partner max 1 µM)
Reply: 0.0992

Continuing:
Task item: Record Cn1cnc2c(F)c(Nc3ccc(Br)cc3Cl)c(C(=O)NOCCO)cc21 [Selumetinib] + CC(C)n1c(=O)n(C)c2cnc3cc(F)c(-c4ccc(OCCCN5CCCCC5)nc4)cc3c21 [AZD1390] (first compound max 10 µM, 7x7, partner max 0.3 µM) : what is its combination Emax with MHH-CALL-2 (B-Lymphoblastic Leukemia)?
Reply: 0.256

====

system: HH (T-Cell Non-Hodgkin's Lymphoma); assay: combination Emax (second highest fraction inhibited in the dose matrix, 72 h); higher = more inhibition; extreme values may be limits of the assay
Decide using combination Emax: a value greater than or equal to 0.3 is Fulfilled, a smaller one is Not fulfilled.

Below, 3 compounds whose answers are already recorded.
Task item: Assess whether reported combination Emax for Cc1cc2ncnn2cc1Nc1ncc2c(n1)n(C1CCOCC1)c(=O)n2C [AZD7648] + COc1cc([C@@H]2c3cc4c(cc3[C@@H](O[C@@H]3O[C@@H]5CO[C@@H](C)O[C@H]5[C@H](O)[C@H]3O)[C@H]3COC(=O)[C@H]23)OCO4)cc(OC)c1O [Etoposide] (first compound max 10 µM, 7x7, partner max 10 µM) sits at 0.3 or higher.
Reply: Not fulfilled

Task item: Please give the result for CC1(C)CCC(CN2CCN(c3ccc(C(=O)NS(=O)(=O)c4ccc(NCC5CCOCC5)c([N+](=O)[O-])c4)c(Oc4cnc5[nH]ccc5c4)c3)CC2)=C(c2ccc(Cl)cc2)C1 [Venetoclax] + C[C@@H](Nc1cc(F)cc(F)c1)c1cc(C(=O)N(C)C)cc2c(=O)cc(N3CCOCC3)oc12 [AZD8186] (first compound max 1 µM, 7x7, partner max 3 µM) too.
Reply: Fulfilled

Task item: Do the same for C=CCn1c(=O)c2cnc(Nc3ccc(N4CCN(C)CC4)cc3)nc2n1-c1cccc(C(C)(C)O)n1 [AZD1775] + C1CN(CCC1(C(=O)N[C@@H](CCO)C2=CC=C(C=C2)Cl)N)C3=NC=NC4=C3C=CN4 [Capivasertib] (first compound max 3 µM, partner max 3 µM) please
Reply: Fulfilled

***
Task item: Say whether NC1(C(=O)N[C@@H](CCO)c2ccc(Cl)cc2)CCN(c2ncnc3[nH]ccc23)CC1 [Capivasertib] + Cn1cnc2c(F)c(Nc3ccc(Br)cc3Cl)c(C(=O)NOCCO)cc21 [Selumetinib] (first compound max 10 µM, 7x7, partner max 10 µM) shows combination Emax of 0.3 or more.
Reply: Not fulfilled

Task item: Item: COc1cccc(OCCCN)c1-c1cc(Nc2cnc(C#N)cn2)n[nH]1 [Prexasertib] + Cc1cc2ncnn2cc1Nc1ncc2c(n1)n(C1CCOCC1)c(=O)n2C [AZD7648] (first compound max 1 µM, 7x7, partner max 10 µM)
Reply: Fulfilled

Task item: Next up: CC(=O)Nc1cccc(-n2c(=O)n(C3CC3)c(=O)c3c(Nc4ccc(I)cc4F)n(C)c(=O)c(C)c32)c1 [Trametinib] + Cc1nc(-c2cn3c(n2)-c2ccc(-c4cnn(C(C)(C)C(N)=O)c4)cc2OCC3)n(C(C)C)n1 [Taselisib] (first compound max 1 µM, 7x7, partner max 10 µM)
Reply: Fulfilled

Task item: Next record, please: C=CCn1c(=O)c2cnc(Nc3ccc(N4CCN(C)CC4)cc3)nc2n1-c1cccc(C(C)(C)O)n1 [AZD1775] + Nc1ccn([C@@H]2O[C@H](CO)[C@@H](O)C2(F)F)c(=O)n1 [Gemcitabine] (first compound max 1 µM, partner max 0.3 µM)
Reply: Fulfilled

Task item: Let us now turn to Cc1c2c(nn1C)CSCc1cc(n(C)n1)CSc1cc(c3ccccc3c1)OCCCc1c(C(=O)O)n(C)c3c-2c(Cl)ccc13 [AZD5991] + CCN(CCO)CCCOc1ccc2c(Nc3cc(CC(=O)Nc4cccc(F)c4)[nH]n3)ncnc2c1 [AZD2811] (first compound max 1 µM, 7x7, partner max 1 µM)
Reply: Fulfilled

====

tested on: GAMG (Glioblastoma); assay: combination Emax (second highest fraction inhibited in the dose matrix, 72 h); higher = more inhibition; extreme values may be limits of the assay
Listed next: entries and their corresponding combination Emax.

Example entries and their recorded answers appear below.
Task item: For the molecule shown here, C[C@@H]1COCCN1c1cc(C2([S@](C)(=N)=O)CC2)nc(-c2ccnc3[nH]ccc23)n1 [AZD6738] + O=C(c1cc(Cc2n[nH]c(=O)c3ccccc23)ccc1F)N1CCN(C(=O)C2CC2)CC1 [Olaparib] (first compound max 10 µM, 7x7, partner max 10 µM) , give the reported combination Emax.
Reply: 0.388

Task item: Then this molecule: CC1(C)CCC(CN2CCN(c3ccc(C(=O)NS(=O)(=O)c4ccc(NCC5CCOCC5)c([N+](=O)[O-])c4)c(Oc4cnc5[nH]ccc5c4)c3)CC2)=C(c2ccc(Cl)cc2)C1 [Venetoclax] + COc1cc(Nc2ncc3c(n2)-c2ccc(Cl)cc2C(c2c(F)cccc2OC)=NC3)ccc1C(=O)O [Alisertib] (first compound max 1 µM, 7x7, partner max 10 µM)
Reply: 0.662

Task item: And for Cc1cc2ncnn2cc1Nc1ncc2c(n1)n(C1CCOCC1)c(=O)n2C [AZD7648] + C=CCn1c(=O)c2cnc(Nc3ccc(N4CCN(C)CC4)cc3)nc2n1-c1cccc(C(C)(C)O)n1 [AZD1775] (first compound max 10 µM, partner max 1 µM) ?
Reply: 0.706

Task item: Then this molecule: COc1nnc2ccc(N3CCC(c4ccc(OCCN5CCN(C)C(=O)[C@H]5C)cc4)CC3)nn12 [AZD5153] + C[C@@H]1COCCN1C2=NC(=NC(=C2)C3(CC3)[S@](=N)(=O)C)C4=C5C=CNC5=NC=C4 [AZD6738] (first compound max 1 µM, 7x7, partner max 10 µM)
Reply: 0.682

Task item: Another molecule to check: C[C@@H](Nc1cc(F)cc(F)c1)c1cc(C(=O)N(C)C)cc2c(=O)cc(N3CCOCC3)oc12 [AZD8186] + C1CN(CCC1(C(=O)N[C@@H](CCO)C2=CC=C(C=C2)Cl)N)C3=NC=NC4=C3C=CN4 [AZD5363] (first compound max 10 µM, 7x7, partner max 10 µM)
Reply: 0.657

More entries:
Task item: Record request: combination Emax value, item COc1cccc(OCCCN)c1-c1cc(Nc2cnc(C#N)cn2)n[nH]1 [Prexasertib] + CN(C)CCCOc1ccc(-c2ccc3ncc4c(c3c2)n(C2CCOCC2)c(=O)n4C)cn1 [AZD0156] (first compound max 1 µM, 7x7, partner max 1 µM)
Reply: 0.843

Task item: Now the molecule CS(=O)(=O)CCNCc1ccc(-c2ccc3ncnc(Nc4ccc(OCc5cccc(F)c5)c(Cl)c4)c3c2)o1 [Lapatinib] + NC1(c2ccc(-c3nc4ccn5c(=O)[nH]nc5c4cc3-c3ccccc3)cc2)CCC1 [MK-2206] (first compound max 10 µM, 7x7, partner max 10 µM)
Reply: 0.862
